assay: optical density change of DRC41 E. coli – strain DRC41, OD650, 24 h, E. coli filamentation project, primary screen (AID 1093);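 further: MC1000 strain lacking acrAB efflux and sulA so SOS filamentation is blocked; test concentration not given here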; conditions: E. coli DRC41 growth, higher = more signal, called active from +8 up or from −8 down
Cut-off 0.3 on z-score, inclusive. At or above means Y; below means N.

Input line: // inclusive: z-score at least 0.3? input: [N-]=[N+]=NCc1ccccc1[C@@H]1OC(c2ccc(OCCCO)cc2)=N[C@]1(CCS(=O)(=O)c1ccccc1)C(=O)N1CCCCC1
Output line: Y

Input line: Check if z-score >= 0.3 (inclusive). Item: NC(=O)NCC#Cc1ccc2c(c1)[C@]1(C(=O)N2)[C@H](C(=O)O)[C@H]2C(=O)O[C@H](c3ccccc3)[C@H](c3ccccc3)N2[C@@H]1c1ccc(O)cc1
Output line: N

Input line: Given the entry O=C(O)[C@H](Cc1ccccc1)n1cc(-c2ccccc2)nn1 , answer whether its z-score meets or surpasses 0.3.
Output line: N

Input line: Hello, I need to know if CCOC(=O)C1=C[C@@H](C(C)C)N(S(=O)(=O)c2ccc(C)cc2)[C@H]1c1ccccc1F has measured z-score not below 0.3. Thanks!
Output line: N

Input line: Say whether COC(=O)C(CC#Cc1ccc2c(c1)[C@]1(C(=O)N2)[C@H](c2ccccc2OCCO)N2[C@H](c3ccccc3)[C@H](c3ccccc3)OC(=O)[C@H]2[C@@H]1C(=O)O)C(=O)OC shows z-score of 0.3 or more.
Output line: Y

Input line: Test whether the compound COc1ccc([C@H]2C[C@H]3C(Br)=C[C@@]2(CO)C(=O)[C@]32CO2)cc1 records z-score of 0.3 or higher.
Output line: N

Input line: Quick check, z-score >= 0.3? CC(=O)NCCCC[C@@H]1NC(=O)[C@H]2C[C@@H](C(=O)NCCCCCNC(=O)CS)[C@@H](c3ccc(O)cc3)N2C1=O
Output line: Y

Input line: Is z-score at least 0.3? Consider COc1ccc(NC(=O)O[C@H]2[C@H](OC(=O)c3cc4ccccc4[nH]3)[C@@H](OC(=O)c3cc4ccccc4[nH]3)[C@@H](OC)O[C@@H]2CO)cc1
Output line: Y

Input line: Evaluate CC[C@@H]1C=C(C(=O)O)[C@H](c2cccc3ccccc23)N1S(=O)(=O)c1ccc(C)cc1 : z-score at minimum 0.3?
Output line: N

Input line: Would you say O=C1OCC=C[C@H]2OC34C=CCN(Cn5nnc6ccccc65)C(=O)[C@H]3N(CCCCCO)C(=O)[C@@H]4[C@@H]12 (stereo partly specified) shows z-score at minimum 0.3?
Output line: Y

Input line: Is reported z-score greater than or equal to 0.3 here: COc1cc2c(cc1O)C=[N+](Cc1cc3c(cc1Br)OCO3)CC2
Output line: N

Input line: Kindly determine if z-score recorded for O=C(NCCN1CCOCC1)[C@@H]1c2ccccc2C(=O)N(Cc2cc(C(F)(F)F)cc(C(F)(F)F)c2)[C@H]1c1ccc(CO)cc1 is above or exactly 0.3.
Output line: Y

Input line: // inclusive: z-score at least 0.3? input: COC(=O)c1c(CC[C@@H](CO)NC(=O)NCCc2c[nH]c3ccccc23)oc(C(=O)Cc2ccccc2)c1C(=O)OC
Output line: Y

Input line: Is z-score at least 0.3? Consider COc1ccc([C@H]2OC[C@@H]3CCC(=O)N32)cc1
Output line: N

Input line: Determine whether this compound has z-score no lower than 0.3: CN(C)C(=O)[C@]1(Cc2ccccc2)N=C(c2ccc(OCCCO)cc2)O[C@@H]1c1ccccc1N=[N+]=[N-]
Output line: Y

Input line: Would you say CCCCN1CC=CC23O[C@@H]4/C=C\CCCOC(=O)C4[C@H]2C(=O)N(CCCO)[C@@H]3C1=O (stereo partly specified) shows z-score at minimum 0.3?
Output line: N

Input line: Hello, I need to know if COCCCNC(=O)[C@@H]1c2ccccc2C(=O)N(Cc2ccccc2OC)[C@H]1c1ccc(CO)cc1 has measured z-score not below 0.3. Thanks!
Output line: N

Input line: Could you please find out whether [N-]=[N+]=NCc1ccccc1C[C@@]1(C(=O)NCC(O)CO)N=C(c2ccc(OCCCO)cc2)O[C@@H]1c1ccccc1 (stereo partly specified) has z-score that meets 0.3 or exceeds it?
Output line: Y

Input line: Answer whether z-score of CN(C)CCCCCCNC(=O)[C@@H]1C[C@@H]2C(=O)N[C@@H](CCCC[N+](C)(C)C)C(=O)N2[C@@H]1c1ccc(O)cc1 is greater than or equal to 0.3.
Output line: N

Input line: Please indicate if the recorded z-score for CCCCC(=C=CC[C@H](O)c1cccc(OCCO)c1)C[C@H](O)c1ccccn1 meets or exceeds 0.3.
Output line: Y

Input line: Quick check, z-score >= 0.3? C=CCNC(=O)[C@@H]1[C@H]2C(=O)O[C@H](c3ccccc3)[C@H](c3ccccc3)N2[C@H](c2ccc(OCCO)cc2)[C@@]12C(=O)N(C(=O)OCCOC)c1ccc(C#CCNC(N)=O)cc12
Output line: Y
